Target: Serine/threonine-protein kinase pim-2 (Homo sapiens, UniProt Q9P1W9)
Sequence (Q9P1W9 whole entry): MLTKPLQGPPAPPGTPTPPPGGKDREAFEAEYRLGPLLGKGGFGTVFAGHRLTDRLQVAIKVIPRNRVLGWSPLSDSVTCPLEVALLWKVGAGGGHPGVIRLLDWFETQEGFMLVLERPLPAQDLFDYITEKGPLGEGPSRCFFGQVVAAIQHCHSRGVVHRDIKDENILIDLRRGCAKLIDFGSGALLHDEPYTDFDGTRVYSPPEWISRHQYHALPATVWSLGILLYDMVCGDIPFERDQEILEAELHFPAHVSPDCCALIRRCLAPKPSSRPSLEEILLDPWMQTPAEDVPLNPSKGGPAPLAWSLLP
Assay: Inhibition of human recombinant PIM2 expressed in Escherichia coli using RSRHSSYPAGT as substrate after 30 mins
pIC50: −log10 of the molar value.

- smiles.str: "O=Cc1cn2c3c1ccc1c4ccccc4n(c13)CCCC2"
  assay.target: "Serine/threonine-protein kinase pim-2 (Homo sapiens, UniProt Q9P1W9)"
  pIC50: 6.46
